- System: PC-3 prostate
- test-summary: NCI-60 one-dose screen, 48 h (100 = growth as untreated, 0 = no growth, -100 = all killed)
- condition: 10 µM unless noted
The panel holds about 83,000 compounds, 20% with a hit somewhere; the sample as a whole holds those more often.

# compound, growth / %
rows = [
    ("C=CC(=O)NC(O)C(Cl)(Cl)Cl (stereo not given)", 102),
    ("CC1(C)N=C(N)N=C(N)N1c1ccc(CCCCc2ccc(S(=O)(=O)F)cc2)cc1", 12.5),
    ("CN1C(=O)NC(=O)C(N=Nc2ccc(Cl)cc2)C1=O (stereo not given)", 94.6),
    ("O=C(C(=O)N1CCCC1)c1cn(CCCCCn2cc(C(=O)C(=O)N3CCCC3)c3ccccc32)c2ccccc12", 65.9),
    ("CC(=O)Nc1ccc(C=C2C(=O)NC(=O)NC2=O)cc1", 93.3),
    ("CC(C)CCC[C@@H](C)[C@H]1CC[C@H]2[C@@H]3CC=C4C[C@@H](OC(=O)Cc5ccc(N(CCCl)CCCl)cc5)CC[C@]4(C)[C@H]3CC[C@]12C", 99.5),
    ("COc1ccc(C2=NN(c3ccccc3)C(c3sc(N(CCCl)CCCl)nc3Cl)C2)cc1 (stereo not given)", 69.5),
    ("C1CN1c1nc(N2CC2)nc(N2CC2)n1", 45.2),
    ("COc1cc(C2CC(=O)Nc3nc(N)[se]c32)c(OC)c2c1OCO2 (stereo not given)", 51.6),
    ("COc1cc(C2CC(=O)Nc3nc(N)[se]c32)cc(OC)c1OC (stereo not given)", 71.2),
]
